- Tested on: HIV-1 latently infected U1 cells
- Protocol Text: Intracellular HIV-1 p24 by flow cytometry in U1 cells
- Assay type: cell-based
- Experimental Parameters: 0.1 µM, 24 h
For each of the compounds below, state its intracellular p24-positive live cells (flow cytometry quadrant).
One number for each entry.

Examples with their reported intracellular p24-positive live cells (flow cytometry quadrant) follow.
Ask: Consider the compound shown here: CCCCCCCCCC(=O)OCC1(CO)CC(=C(C)C)C(=O)O1 (stereo not shown) What is its recorded intracellular p24-positive live cells (flow cytometry quadrant)?
Result: 0.28

Ask: Using the record for CCCCCCCCCC(=O)OCC1(CO)C/C(=C\CC(C(C)C)C(C)C)C(=O)O1 (stereo not shown) [YOK058E] , report its intracellular p24-positive live cells (flow cytometry quadrant).
Result: 0.208

Ask: // query intracellular p24-positive live cells (flow cytometry quadrant) value for entry CC(=O)O[C@@]12C[C@@H](C)[C@@]3(O)[C@@H](C=C(CO)C[C@]4(O)C(=O)C(C)=C[C@@H]34)[C@@H]1C2(C)C [Prostratin, reference compound]
Result: 0.333

Continue with the next compound.
Ask: Name the reported intracellular p24-positive live cells (flow cytometry quadrant) value associated with the compound CCCC(CCC)C(=O)OCC1(CO)CC(=C(C)C)C(=O)O1 (stereo not shown)
Result: 0.239
